Hello, the source for this data is the supplement of paper PMC7125110, in case you need it.

B1: glmS ribozyme (parent)
chain: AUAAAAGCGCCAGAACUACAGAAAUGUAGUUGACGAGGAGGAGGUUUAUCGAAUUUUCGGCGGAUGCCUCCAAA

# Variants of: B1
# test: self-cleavage kobs at 2500 uM GlcN6P; higher = faster cleavage; RNA array
# applied conditions: with glucosamine-6-phosphate
Fewer inactive variants are shown than the library holds.
Response key: YES means self-cleavage kobs at 2500 uM GlcN6P >= 0.0002 s⁻¹; NO means self-cleavage kobs at 2500 uM GlcN6P < 0.0002 s⁻¹.

Here are 2 variants together with their reported answers.
mutations	category label
G13A G29U	NO
G9A G44C A53G U57A	NO

Q) Check if self-cleavage kobs at 2500 uM GlcN6P >= 0.0002 s⁻¹ (inclusive). Item: C16A C34G C68G
A) NO

Q) What do you have for U57C G66A ?
A) NO

Q) What do you have for U31C C58A C61U A64U ?
A) NO

Q) What do you have for G32C G38A U47A C58U A64C U69G ?
A) NO

Q) What do you have for U46C G51U A52G U55A C61G ?
A) NO

Q) What do you have for C16A U30G ?
A) NO
